Catalogue of hERG current change (%, negative = inhibition) at 10uM values
# assay-system: human ether-à-go-go-related gene (hERG) potassium channel (human, UniProt Q12809)
# Sequence (Q12809 whole entry, looked up): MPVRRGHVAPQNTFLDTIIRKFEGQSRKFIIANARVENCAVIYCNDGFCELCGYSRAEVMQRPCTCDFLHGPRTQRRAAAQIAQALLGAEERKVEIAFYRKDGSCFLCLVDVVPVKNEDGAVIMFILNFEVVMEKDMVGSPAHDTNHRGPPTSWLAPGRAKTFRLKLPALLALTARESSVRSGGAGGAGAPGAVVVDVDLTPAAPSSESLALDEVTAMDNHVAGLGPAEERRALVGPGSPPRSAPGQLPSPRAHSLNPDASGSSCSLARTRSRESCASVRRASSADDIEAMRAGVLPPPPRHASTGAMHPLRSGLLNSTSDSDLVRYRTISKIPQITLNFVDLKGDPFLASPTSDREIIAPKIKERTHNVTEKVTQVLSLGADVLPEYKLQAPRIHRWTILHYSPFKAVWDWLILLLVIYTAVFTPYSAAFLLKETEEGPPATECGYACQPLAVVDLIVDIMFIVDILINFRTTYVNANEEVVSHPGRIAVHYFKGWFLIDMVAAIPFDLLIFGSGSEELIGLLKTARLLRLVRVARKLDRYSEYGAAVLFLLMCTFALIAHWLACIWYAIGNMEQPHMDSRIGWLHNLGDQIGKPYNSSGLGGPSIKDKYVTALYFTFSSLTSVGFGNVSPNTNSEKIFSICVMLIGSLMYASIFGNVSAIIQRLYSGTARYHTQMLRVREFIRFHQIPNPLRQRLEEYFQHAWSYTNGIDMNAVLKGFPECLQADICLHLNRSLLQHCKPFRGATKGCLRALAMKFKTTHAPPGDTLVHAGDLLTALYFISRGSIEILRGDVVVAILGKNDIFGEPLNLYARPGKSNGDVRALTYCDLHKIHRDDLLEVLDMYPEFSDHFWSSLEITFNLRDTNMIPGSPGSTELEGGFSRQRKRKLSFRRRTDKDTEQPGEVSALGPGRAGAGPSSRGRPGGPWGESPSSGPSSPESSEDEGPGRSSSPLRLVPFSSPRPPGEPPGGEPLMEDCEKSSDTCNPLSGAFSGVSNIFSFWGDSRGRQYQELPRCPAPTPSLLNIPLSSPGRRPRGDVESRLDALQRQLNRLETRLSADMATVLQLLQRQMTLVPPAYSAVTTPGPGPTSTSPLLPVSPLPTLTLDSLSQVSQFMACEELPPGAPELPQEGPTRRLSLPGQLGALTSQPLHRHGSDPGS
# procedure-details: primary screen, population patch clamp on CHO cells stably expressing hERG; higher = less effect of the substance
# Procedure: Briefly, Chinese hamster ovary (CHO) cells stably expressing the hERG channel were dislodged from tissue culture flasks and dispensed into PPC plates. […] During the recording, background leak currents were estimated by a 100 ms step to -80 mV from an initial holding potential of -70 mV and subtracted from the subsequent current measurement. The campaign was conducted in two phases using slight differences in recording protocol. […]
In all, about 310,000 compounds went through this assay and about 14,000 (4.5%) showed an effect of 50% or more. Effects have a minus sign here. What follows is part of a selection rich in strong results, with near analogues and random picks from the rest.
property: hERG current change (%, negative = inhibition) at 10uM (%)

>  <molecule>
COC(=O)c1ccc(N2CCN(C)CC2)c([N+](=O)[O-])c1

>  <assay-system>
human ether-à-go-go-related gene (hERG) potassium channel (human, UniProt Q12809)

>  <observed>
-63.4

$$$$
>  <molecule>
CNC(=O)COC(=O)c1ccc(NC(=O)CC#N)cc1

>  <assay-system>
human ether-à-go-go-related gene (hERG) potassium channel (human, UniProt Q12809)

>  <observed>
11.9

$$$$
>  <molecule>
CN1CCN(c2ccc(C(=O)c3ccccc3)cc2[N+](=O)[O-])CC1

>  <assay-system>
human ether-à-go-go-related gene (hERG) potassium channel (human, UniProt Q12809)

>  <observed>
-53.1

$$$$
>  <molecule>
CC(C)c1cccc(C(C)C)c1NC(=S)Nc1cccc(Cl)c1

>  <assay-system>
human ether-à-go-go-related gene (hERG) potassium channel (human, UniProt Q12809)

>  <observed>
5.01

$$$$
>  <molecule>
COC(=O)c1ccc(N2CCN(S(=O)(=O)c3ccc(C)cc3)CC2)c([N+](=O)[O-])c1

>  <assay-system>
human ether-à-go-go-related gene (hERG) potassium channel (human, UniProt Q12809)

>  <observed>
4.78

$$$$
>  <molecule>
COC(=O)c1ccc(N2CCN(S(=O)(=O)c3ccc(Br)cc3)CC2)c([N+](=O)[O-])c1

>  <assay-system>
human ether-à-go-go-related gene (hERG) potassium channel (human, UniProt Q12809)

>  <observed>
10.6

$$$$
>  <molecule>
O=C(NCc1ccccc1)c1ccc(Cl)c(NC2=NC3CS(=O)(=O)CC3S2)c1 (stereo not shown)

>  <assay-system>
human ether-à-go-go-related gene (hERG) potassium channel (human, UniProt Q12809)

>  <observed>
-0.123

$$$$
>  <molecule>
COC(=O)c1ccc(N2CCN(CC(=O)c3ccc(-c4ccccc4)cc3)CC2)c([N+](=O)[O-])c1

>  <assay-system>
human ether-à-go-go-related gene (hERG) potassium channel (human, UniProt Q12809)

>  <observed>
8.75

$$$$
>  <molecule>
CC(=O)c1c(C)[nH]c(C(=O)Nc2nc(-c3ccc(-c4ccccc4)cc3)cs2)c1C

>  <assay-system>
human ether-à-go-go-related gene (hERG) potassium channel (human, UniProt Q12809)

>  <observed>
19.3

$$$$
>  <molecule>
O=C(Nc1ccc(F)cc1)OC1CN2CCC1CC2 (stereo not shown)

>  <assay-system>
human ether-à-go-go-related gene (hERG) potassium channel (human, UniProt Q12809)

>  <observed>
-27.5

$$$$
>  <molecule>
O=C(Nc1ccc(Br)cc1)NC1CCCCCCC1

>  <assay-system>
human ether-à-go-go-related gene (hERG) potassium channel (human, UniProt Q12809)

>  <observed>
2.29

$$$$
>  <molecule>
CC(C)CN1C(=O)c2ccc(C(=O)Nc3ccccn3)cc2C1=O

>  <assay-system>
human ether-à-go-go-related gene (hERG) potassium channel (human, UniProt Q12809)

>  <observed>
-14.7

$$$$
>  <molecule>
CN(c1ccc(C(=O)NCc2ccc3c(c2)OCO3)cc1)S(=O)(=O)c1ccccc1

>  <assay-system>
human ether-à-go-go-related gene (hERG) potassium channel (human, UniProt Q12809)

>  <observed>
-4.02

$$$$
>  <molecule>
COC(=O)c1ccc(N2CCN(CC(=O)c3ccc(C)cc3)CC2)c([N+](=O)[O-])c1

>  <assay-system>
human ether-à-go-go-related gene (hERG) potassium channel (human, UniProt Q12809)

>  <observed>
-65

$$$$
>  <molecule>
Cc1sc2nc(SCC(=O)N3CCN(CCO)CC3)n(-c3ccccc3)c(=O)c2c1C

>  <assay-system>
human ether-à-go-go-related gene (hERG) potassium channel (human, UniProt Q12809)

>  <observed>
-3.7

$$$$
>  <molecule>
O=C1C(C2=NC(C(=O)O)C3C(=O)N(c4ccc(Cl)cc4)C(=O)C23)=C(O)c2ccccc21 (stereo not shown)

>  <assay-system>
human ether-à-go-go-related gene (hERG) potassium channel (human, UniProt Q12809)

>  <observed>
2.54

$$$$
>  <molecule>
CC(C)c1ccc(NC(=O)CSc2ncccc2C(=O)Oc2cccc([N+](=O)[O-])c2)cc1

>  <assay-system>
human ether-à-go-go-related gene (hERG) potassium channel (human, UniProt Q12809);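 also: peak tail current of the secondary pulse compared with the same well before compound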

>  <observed>
8.39

$$$$
>  <molecule>
COC(=O)c1ccc(N2CCN(C(=O)C3CC3)CC2)c([N+](=O)[O-])c1

>  <assay-system>
human ether-à-go-go-related gene (hERG) potassium channel (human, UniProt Q12809);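 also: peak tail current of the secondary pulse compared with the same well before compound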

>  <observed>
-7.61

$$$$
>  <molecule>
COC(=O)c1ccc(N2CCc3ccccc32)c([N+](=O)[O-])c1

>  <assay-system>
human ether-à-go-go-related gene (hERG) potassium channel (human, UniProt Q12809);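 also: peak tail current of the secondary pulse compared with the same well before compound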

>  <observed>
10.5

$$$$

---

Catalogue of hERG current change (%, negative = inhibition) at 10uM values
# assay-system: human ether-à-go-go-related gene (hERG) potassium channel (human, UniProt Q12809);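 also: peak tail current of the secondary pulse compared with the same well before compound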
# procedure-details: primary screen, population patch clamp on CHO cells stably expressing hERG; higher = less effect of the substance
Among all 310,000 compounds or so, about 14,000 (4.5%) showed an effect of 50% or more. Effects have a minus sign here. Only a selection was taken, and strong results are over-represented in it overall.
property: hERG current change (%, negative = inhibition) at 10uM

>  <compound>
CCOC(=O)CSCC(=O)Nc1cc(C)ccc1C

>  <observed>
0.851%

$$$$
>  <compound>
C=CCc1ccccc1OCC(O)CNC(C)C.Cl (centres unmarked)

>  <observed>
-33.3%

$$$$
>  <compound>
COC(=O)C1=C(C)N=C2SC(C)C(=O)N2C1c1cccs1 (centres unmarked)

>  <observed>
7.16%

$$$$
>  <compound>
Cc1cccc(Nc2nc(NCc3ccco3)c3ccccc3n2)c1.Cl

>  <observed>
-12.2%

$$$$
>  <compound>
CCc1ccccc1NC(=O)COc1ccc2oc(-c3ccc(OC)cc3)cc(=O)c2c1

>  <observed>
5.29%

$$$$
>  <compound>
CCOc1ccc(S(=O)(=O)NCC(c2ccc3c(c2)OCO3)N2CCN(C)CC2)cc1 (centres unmarked)

>  <observed>
-59.2%

$$$$
>  <compound>
CCNc1nn2ccccc2c1/C=C(\C#N)C(=O)OCC

>  <observed>
-4.06%

$$$$
>  <compound>
CSc1ccc(C(=O)C2CCCN(Cc3cccnc3)C2)cc1 (centres unmarked)

>  <observed>
-53%

$$$$
>  <compound>
Cc1cccc(-c2ncc(CN3CCCC(CO)(Cc4ccccc4C)C3)cn2)c1 (centres unmarked)

>  <observed>
-11.4%

$$$$
>  <compound>
COc1ccc(S(=O)(=O)NCC(c2ccc3c(c2)OCO3)N2CCN(C)CC2)cc1OC (centres unmarked)

>  <observed>
-15.5%

$$$$
>  <compound>
CCOC(=O)c1ccc(CS(=O)c2ccc(Cl)cc2)o1 (centres unmarked)

>  <observed>
-3.47%

$$$$
>  <compound>
Cc1cccn2c(=O)c3cc(C(=O)NC4CCCCC4)c(=N)n(CCN4CCOCC4)c3nc12

>  <observed>
-87%

$$$$
>  <compound>
O=C(C1CCCN(Cc2cccnc2)C1)N1CCCCC1.O=C(O)C(=O)O (centres unmarked)

>  <observed>
7.77%

$$$$
>  <compound>
CC(C)(O)[C@H]1Cc2cc3ccc(=O)oc3cc2O1

>  <observed>
21.2%

$$$$
>  <compound>
CCCOC(=O)CCCCCCCCC(O)CN1CCCCC1.Cl (centres unmarked)

>  <observed>
-30%

$$$$
>  <compound>
CN1CCN(C(CNS(=O)(=O)c2ccc(Br)cc2)c2ccc3c(c2)OCO3)CC1 (centres unmarked)

>  <observed>
-79.8%

$$$$
>  <compound>
Cc1ccc(S(=O)(=O)NCC(c2ccc3c(c2)OCO3)N2CCOCC2)cc1 (centres unmarked)

>  <observed>
-8.63%

$$$$
>  <compound>
COc1ccc(C)cc1S(=O)(=O)NCC(c1ccc2c(c1)OCO2)N1CCOCC1 (centres unmarked)

>  <observed>
-13.6%

$$$$
>  <compound>
CCC(C)(C)NC(=O)C(c1ccc(OC)cc1)N(C(=O)CCC(=O)Nc1cc(C)on1)c1ccc(OC)cc1OC (centres unmarked)

>  <observed>
-7.89%

$$$$
>  <compound>
COc1ccc(C)cc1S(=O)(=O)NCC(c1ccc2c(c1)OCO2)N1CCN(C)CC1 (centres unmarked)

>  <observed>
-68.2%

$$$$

Each recorded value in this set is attributed to paper PMC4336329.
